target: β2c subunit of isolated human 20S proteasome (Homo sapiens, UniProt Q99436); construct: purchased Enzo Life Sciences; assay: Proteasome inhibition assay (20 S Proteasome Assay Kit, Bz‐VGR‐AMC); assay type: biochemical; details: c = 1 µM, n=1; read-out: Inhibition cCP β2
measurement kind: inhibition at 1 µM (%)
Hi! Could you send only the number? It should be in %, unit omitted.

The following compounds have reported results that may help.
[[record]]
compound_string = "CC(C)C[C@H](NC(=O)OCc1ccccc1)C(=O)N[C@@H](CC(C)C)C(=O)N[C@@H](CC(C)C)C(=O)C(=O)Nc1cccc(Oc2ccccc2)c1"
val = 9

[[record]]
compound_string = "CC(C)C[C@@H](C=O)NC(=O)[C@H](CC(C)C)NC(=O)[C@H](CC(C)C)NC(=O)c1cc(Cl)ccc1Cl"
val = 26

[[record]]
compound_string = "Cc1cc(C)c(Oc2ccccc2)cc1NC(=O)C(=O)[C@H](CC(C)C)NC(=O)[C@H](CC(=O)OC(C)(C)C)NC(=O)[C@H](CC(C)C)NC(=O)c1cc(Cl)ccc1Cl"
val = -4

[[record]]
compound_string = "Cc1ccc(NC(=O)C(=O)[C@H](CC(C)C)NC(=O)[C@H](CC(=O)OC(C)(C)C)NC(=O)[C@H](CC(C)C)NC(=O)OCc2ccccc2)c(C)c1"
val = -10

[[record]]
compound_string = "Cc1ccc(NC(=O)C(=O)[C@H](CC(C)C)NC(=O)[C@H](CC(C)C)NC(=O)[C@H](CC(C)C)NC(=O)c2cc(Cl)ccc2Cl)c(C)c1"
val = 17

[[record]]
compound_string = "Cc1cc(C)c(Oc2ccccc2)cc1NC(=O)C(=O)[C@H](CC(C)C)NC(=O)[C@H](CC(C)C)NC(=O)[C@H](CC(C)C)NC(=O)OCc1ccccc1"
val = 10

[[record]]
compound_string = "CC(C)C[C@H](NC(=O)OCc1ccccc1)C(=O)N[C@@H](CC(=O)OC(C)(C)C)C(=O)N[C@@H](CC(C)C)C(=O)C(=O)Nc1cccc(Oc2ccccc2)c1"
val = 9

[[record]]
compound_string = "CC(C)C[C@@H](C=O)NC(=O)[C@H](CC(C)C)NC(=O)[C@H](CC(C)C)NC(=O)c1cnccn1"
val = 49

[[record]]
compound_string = "CC(C)C[C@H](NC(=O)OCc1ccccc1)C(=O)N[C@@H](CC(=O)OC(C)(C)C)C(=O)N[C@@H](CC(C)C)C(=O)C(=O)Nc1ccc(Oc2ccccc2)cc1"
val = -7

[[record]]
compound_string = "CC(C)C[C@H](NC(=O)[C@H](CCc1ccccc1)NC(=O)CN1CCOCC1)C(=O)N[C@@H](Cc1ccccc1)C(=O)N[C@@H](CC(C)C)C(=O)[C@@]1(C)CO1"
val = 37


Query: Please provide the recorded inhibition at 1 µM for CC(C)C[C@H](NC(=O)OCc1ccccc1)C(=O)N[C@@H](CC(C)C)C(=O)N[C@@H](CC(C)C)C(=O)C(=O)Nc1ccc(Oc2ccccc2)cc1 , tested on β2c subunit of isolated human 20S proteasome (Homo sapiens, UniProt Q99436).
Reply: 2
